Measured Cmax at 24 h, listed per entry for reference.
# protocol-details: in vivo
# condition: Wistar/Han, rat, po, 2 mg/kg
Express it in ng/mL; write the number only.

Observe how each entry below is paired with its result.
C[C@H](NC(=O)c1c[nH]c2ncc(C3CC3)nc12)C(C)(C)O : 429
CC(C)(C)[C@@H](NC(=O)c1c[nH]c2ncc(C3CC3)nc12)C(=O)N1CC(C#N)C1 : 398

Pending molecule:
Request the reported Cmax at 24 h associated with C[C@H](NC(=O)c1c[nH]c2ncc(C3CC3)nc12)C(C)(C)C#N 200

----------
Tyrosine-protein kinase JAK1 (Homo sapiens, UniProt P23458) data, read-out IC50
Sequence (P23458 whole entry): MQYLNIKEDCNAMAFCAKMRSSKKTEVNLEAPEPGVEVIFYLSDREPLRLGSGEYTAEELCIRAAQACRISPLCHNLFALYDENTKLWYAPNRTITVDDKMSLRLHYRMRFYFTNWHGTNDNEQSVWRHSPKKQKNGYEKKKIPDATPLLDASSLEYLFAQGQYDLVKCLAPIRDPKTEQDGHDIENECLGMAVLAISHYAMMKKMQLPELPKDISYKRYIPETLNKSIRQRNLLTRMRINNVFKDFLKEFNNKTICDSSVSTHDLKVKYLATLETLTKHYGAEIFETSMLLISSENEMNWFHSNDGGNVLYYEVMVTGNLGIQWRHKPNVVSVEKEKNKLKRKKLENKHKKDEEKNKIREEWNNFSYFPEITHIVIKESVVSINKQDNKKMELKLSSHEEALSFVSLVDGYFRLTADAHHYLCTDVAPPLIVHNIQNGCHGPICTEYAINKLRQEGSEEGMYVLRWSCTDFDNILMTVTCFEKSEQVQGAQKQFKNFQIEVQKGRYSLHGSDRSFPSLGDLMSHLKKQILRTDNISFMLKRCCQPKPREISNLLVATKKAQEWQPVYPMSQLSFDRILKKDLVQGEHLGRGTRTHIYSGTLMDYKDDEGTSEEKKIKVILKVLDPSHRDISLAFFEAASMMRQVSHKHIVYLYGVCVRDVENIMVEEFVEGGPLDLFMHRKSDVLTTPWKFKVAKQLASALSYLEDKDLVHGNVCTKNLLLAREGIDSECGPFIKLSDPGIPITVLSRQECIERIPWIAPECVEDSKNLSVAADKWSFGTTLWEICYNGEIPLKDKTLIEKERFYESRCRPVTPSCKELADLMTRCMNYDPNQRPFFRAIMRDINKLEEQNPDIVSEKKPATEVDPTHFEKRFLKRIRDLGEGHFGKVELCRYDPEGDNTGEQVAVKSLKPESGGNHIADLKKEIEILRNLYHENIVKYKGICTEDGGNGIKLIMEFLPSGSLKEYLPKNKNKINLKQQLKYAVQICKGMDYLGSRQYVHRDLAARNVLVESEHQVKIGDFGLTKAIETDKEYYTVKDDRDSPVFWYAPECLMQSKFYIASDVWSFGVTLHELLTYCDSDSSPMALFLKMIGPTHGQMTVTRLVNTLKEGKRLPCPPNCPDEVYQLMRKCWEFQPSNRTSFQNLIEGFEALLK
Express it in nM; write the number only.

C[C@H](NC(=O)c1c[nH]c2ncc(C3CC3)nc12)C(C)(C)C : 44.5
CC[C@H](C)NC(=O)c1c[nH]c2ncc(C3CC3)nc12 : 75.8
C[C@H](NC(=O)c1c[nH]c2ncc(C3CC3)nc12)C1CCCCC1 : 1100

Record lookup: for Tyrosine-protein kinase JAK1 (Homo sapiens, UniProt P23458), what IC50 belongs to C[C@@H](NC(=O)c1c[nH]c2ncc(C3CC3)nc12)C(=O)N(C)C ? 637

Record lookup: for Tyrosine-protein kinase JAK1 (Homo sapiens, UniProt P23458), what IC50 belongs to C[C@H](NC(=O)c1c[nH]c2ncc(C3CC3)nc12)C(C)(C)O ? 257
